Data origin: PubChem BioAssay (NCI)

Tested on: SK-MEL-5 melanoma
Test: NCI-60 one-dose screen, 48 h (100 = growth as untreated, 0 = no growth, -100 = all killed)
Settings: 10 µM unless noted
Description: Growth inhibition of the SK-MEL-5 human tumor cell line is measured as a screen for anti-cancer activity. Cells are grown in 96 well plates and exposed to the test compound for 48 hours. Compounds are tested at a single concentration, which is 10^-5 M for most compounds. The reported endpoint is percent growth (GI% or GIPRCNT), where numbers from 0 - 100% represent growth inhibition, and numbers from -100% - 0 represent cell death. For example, a value of 40 represents 60% growth inhibition. […]
About 83,000 compounds went through this panel and 20% of them were active in at least one assay; those are over-represented in the sample as a whole.
property_measured: growth (%)
Express it in %; write the number only.

Lookup: Entry under review: Cc1[nH]c(=O)[nH]c(=O)c1Br . Reported growth?
Found: 112

Lookup: Entry under review: OCCn1cc(-c2nc(-c3c[nH]c4ncccc34)cs2)c2cc(F)ccc21 . Reported growth?
Found: 63

Lookup: Entry under review: COc1ccc(Nc2ncc(Br)c(NCCCNC(=O)c3cccs3)n2)cc1 . Reported growth?
Found: 69.5

Lookup: Entry under review: COc1ccc(-c2ccc(=O)oc2-c2cc(OC)c(OC)c(OC)c2)cc1O . Reported growth?
Found: -55.5

Lookup: Entry under review: CC(=O)Oc1ccc(N2C(=O)C(Cl)=C(Nc3cccc(C(F)(F)F)c3)C2=O)cc1 . Reported growth?
Found: 105

Lookup: Entry under review: O=C(Nc1ccc(OS(=O)(=O)c2ccc(F)cc2)cc1)C1CCCCCC1 . Reported growth?
Found: 71.9

Lookup: Entry under review: Nc1[nH]n2cc(-c3ccccc3)nc2c1N=Nc1ccc(S(N)(=O)=O)cc1 . Reported growth?
Found: 26.8

Lookup: Entry under review: O=C(COc1ccc(-c2nc3cc(Cl)c(Cl)cc3[nH]2)cc1)N=Nc1c(O)[nH]c2ccc(Cl)cc12 . Reported growth?
Found: 85.6

Lookup: Entry under review: Cn1c(=O)cc2c3c(c(NCCCO)ccc31)C(=O)c1ccccc1-2 . Reported growth?
Found: 40.2

Lookup: Entry under review: COc1cc2c(cc1OC)C(C)N(S(N)(=O)=O)CC2 (stereo not given) . Reported growth?
Found: 105

###

Test system: MCF7 breast
Assay: NCI-60 one-dose screen, 48 h (100 = growth as untreated, 0 = no growth, -100 = all killed)
Details: 10 µM unless noted
Compounds without any hit were thinned out: in the full panel of roughly 83,000, 20% have a hit.
Provide the recorded growth for the entries that follow.
Express it in %; write the number only.

Lookup: Entry under review: C=CC(=O)N1CCN(c2cccc(Oc3nccc(Nc4nnc(-c5ccc(Br)cc5)s4)n3)c2)CC1 . Reported growth?
Found: 35.9

Lookup: Entry under review: O=C(N(c1ccccc1)c1ccccc1)n1cc(I)c2nc(Cl)nc(Cl)c21 . Reported growth?
Found: 25.5

Lookup: Entry under review: CCCCCCCCCCC(CN(CC)CC)C(O)c1ccccc1 (stereo not given) . Reported growth?
Found: 1.87

Lookup: Entry under review: N=C(N)c1ccc(-c2ccc(-c3ccc(Cl)cc3Cl)s2)cc1 . Reported growth?
Found: -65.4

Lookup: Entry under review: CN1CCc2nc3sc(C(N)=O)c(N)c3c(-c3cccs3)c2C1 . Reported growth?
Found: 12.6
